From: paper PMC5540273

Kindly supply the reported %Inh values for the records listed here.
- Test system: RPS6KA4(Kin.Dom.1-N-terminal)
- cond: concentration: 1 μM, replicates: in singlicate; n = 1;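 further: KINOMEscan kinase panel screen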
Kindly provide the numeric value in % only, without the unit symbol.

GET /values?readout=%Inh&system=RPS6KA4(Kin.Dom.1-N-terminal)&item= Nc1ncc(-c2cccnc2)c2scc(-c3ccc4c(c3)CCN4C(=O)Cc3ccccc3)c12 [GSK683281]
24

Repeat with Fc1ccc(-c2ncn(C3CCNCC3)c2-c2ccnc(Oc3ccc(-c4ccccc4)cc3)n2)cc1 [SB-245391]
12

Repeat with COc1cccc(-c2ccc3c(NC(=O)C4CC4)n[nH]c3n2)c1 [SB-710903]
2

Repeat with Cl.c1ccc(-c2ccc3c(Nc4ccc5[nH]ncc5c4)ccnc3c2)nc1 [GW440137]
0

Repeat with Cn1cc(-c2ccc3c(c2)CCN3C(=O)Cc2cccc(Cl)c2)c2c(N)ncnc21 [GSK2606590]
22

Repeat with CNC(=O)c1ccccc1Nc1nc(Nc2ccc(N3CCOCC3)cc2)ncc1Cl.Cl [GSK1576028]
99.7

Repeat with Clc1ccc(-c2nn3ncccc3c2-c2ccnc(Nc3ccc4c(c3)OCCO4)n2)cc1 [GW829116]
4

Repeat with CCS(=O)(=O)c1ccc(OC)c(Nc2nccc(-c3c(-c4cccc(NC(=O)c5c(F)cccc5F)c4)nn4ncccc34)n2)c1 [GSK326180]
16

Repeat with O=C(Nc1cccc(-c2nn3ncccc3c2-c2ccnc(Nc3ccccc3)n2)c1)c1c(F)cccc1F [GSK198271]
18

Repeat with COc1cc(Nc2nccc(N3CCC(NC(=O)Nc4cccc(C(C)=O)c4)C3)n2)cc(OC)c1OC (stereo not shown) [GSK1379753]
7

Repeat with Cl.Cl.NCC(NCc1ccc(-c2ccnc3[nH]ccc23)s1)c1ccccc1 (stereo not shown) [GSK1321565]
16

Repeat with Cl.Cl.NCC(NC(=O)c1cc(-c2ccccc2)c(-c2ccnc3[nH]ccc23)s1)c1ccccc1 (stereo not shown) [GSK1321561]
24

Repeat with O=C(Nc1cccc(Oc2ccc3nc(NC(=O)C4CC4)cn3n2)c1)c1ccccc1C(F)(F)F
35

Repeat with COc1ccc(Nc2nccc(NCCNC(=O)c3cc4ccccc4s3)n2)cc1 [GSK1379896]
0

Repeat with O=C(Nc1n[nH]c2cc(-c3ccoc3)ccc12)C1CC1 [SB-738481]
0

Repeat with COc1cc(Nc2nccc(-c3c(-c4cccc(NC(=O)c5c(F)cccc5F)c4)nn4ncccc34)n2)cc(OC)c1OC [GSK327238]
55

Repeat with COc1cccc(C(=O)Nc2cccc(Oc3ccc4nc(NC(=O)C5CC5)cn4n3)c2)c1
40

Repeat with Nc1ncc(-c2ccc3nccc(-c4ccncc4)c3c2)cc1S(=O)(=O)N1CCOCC1 [GSK1627798]
0

Repeat with C[C@@H]1CC[C@@H](C(=O)Nc2ccccc2)CN1c1cc(-c2ccc3c(N)n[nH]c3c2)nc(N)n1 [GSK2286062]
4

###

Kindly supply the reported %Inh values for the records listed here.
- System: MST4
- cond: concentration: 1 μM, replicates: in singlicate; n = 1
Kindly provide the numeric value in % only, without the unit symbol.

Consider the compound shown here: NCCCC(NC(=O)c1cc(Br)c(-c2ccnc3[nH]ccc23)s1)c1ccccc1.O=C(O)C(F)(F)F.O=C(O)C(F)(F)F (centres unmarked) [GSK1287544] What is its recorded %Inh?
11

Repeat with CC(=O)Nc1nc2cnc(Nc3cc(NC(=O)c4cccc(C5(C#N)CC5)c4Cl)ccc3C)nc2s1
0

Repeat with CC(C)(C)c1ccc2nccc(Nc3cccc(O)c3)c2c1 [GW856795]
0

Repeat with COc1cccc(C(=O)Nc2cccc(Oc3ccc4nc(NC(=O)C5CC5)cn4n3)c2)c1
0

Repeat with COc1ccc(-c2coc3ccc(-c4nnc(SCc5ccc(OC)c(C(F)(F)F)c5)o4)cc23)cc1
0
